TGT: DNA (cytosine-5)-methyltransferase 1 [351-1600] (Homo sapiens, UniProt P26358)
Sequence (P26358 351-1600): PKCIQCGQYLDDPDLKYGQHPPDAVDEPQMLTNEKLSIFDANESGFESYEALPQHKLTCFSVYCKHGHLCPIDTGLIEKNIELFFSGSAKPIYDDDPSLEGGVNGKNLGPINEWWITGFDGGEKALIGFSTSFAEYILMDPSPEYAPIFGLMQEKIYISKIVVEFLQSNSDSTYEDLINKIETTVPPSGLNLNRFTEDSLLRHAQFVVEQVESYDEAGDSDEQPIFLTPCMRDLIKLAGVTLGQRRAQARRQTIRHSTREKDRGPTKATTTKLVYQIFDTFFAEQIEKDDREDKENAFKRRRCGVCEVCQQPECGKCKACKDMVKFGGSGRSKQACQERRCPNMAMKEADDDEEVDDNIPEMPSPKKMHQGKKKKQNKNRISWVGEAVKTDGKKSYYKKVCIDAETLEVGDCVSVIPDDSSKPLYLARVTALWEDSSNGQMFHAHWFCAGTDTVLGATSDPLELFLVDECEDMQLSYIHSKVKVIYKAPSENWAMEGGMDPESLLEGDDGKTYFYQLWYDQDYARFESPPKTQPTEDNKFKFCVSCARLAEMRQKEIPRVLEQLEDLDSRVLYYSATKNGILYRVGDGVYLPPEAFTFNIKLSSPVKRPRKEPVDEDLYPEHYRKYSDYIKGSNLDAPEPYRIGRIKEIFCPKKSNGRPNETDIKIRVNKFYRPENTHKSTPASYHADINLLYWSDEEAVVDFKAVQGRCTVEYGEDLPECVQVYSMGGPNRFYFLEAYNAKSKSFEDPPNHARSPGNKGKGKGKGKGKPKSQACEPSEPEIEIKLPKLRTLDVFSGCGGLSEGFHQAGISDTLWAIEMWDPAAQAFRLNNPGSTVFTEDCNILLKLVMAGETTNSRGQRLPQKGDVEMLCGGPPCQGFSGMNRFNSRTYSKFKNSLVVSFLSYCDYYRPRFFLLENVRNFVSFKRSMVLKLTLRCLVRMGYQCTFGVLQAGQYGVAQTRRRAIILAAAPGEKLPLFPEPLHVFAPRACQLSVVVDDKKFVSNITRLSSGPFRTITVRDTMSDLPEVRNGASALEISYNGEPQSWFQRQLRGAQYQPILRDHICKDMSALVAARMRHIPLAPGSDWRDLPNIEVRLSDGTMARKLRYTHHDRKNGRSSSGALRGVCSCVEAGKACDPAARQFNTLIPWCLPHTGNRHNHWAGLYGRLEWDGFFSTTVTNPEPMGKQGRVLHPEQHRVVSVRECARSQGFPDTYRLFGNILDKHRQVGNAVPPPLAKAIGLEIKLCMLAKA
PROPERTY_LABEL: IC50 (µM)
Numeric answer only, unit µM assumed.

Measured IC50 of `CC(=O)NCCc1ccc(O)c(-c2c(O)c(O)c3c(c2O)C(=O)c2c(cc(O)c(C(=O)O)c2C(=O)O)C3=O)c1` : 19.1

* * *

TGT: DNA (cytosine-5)-methyltransferase 3A [590-912] (Homo sapiens, UniProt Q9Y6K1)
Sequence (Q9Y6K1 590-912): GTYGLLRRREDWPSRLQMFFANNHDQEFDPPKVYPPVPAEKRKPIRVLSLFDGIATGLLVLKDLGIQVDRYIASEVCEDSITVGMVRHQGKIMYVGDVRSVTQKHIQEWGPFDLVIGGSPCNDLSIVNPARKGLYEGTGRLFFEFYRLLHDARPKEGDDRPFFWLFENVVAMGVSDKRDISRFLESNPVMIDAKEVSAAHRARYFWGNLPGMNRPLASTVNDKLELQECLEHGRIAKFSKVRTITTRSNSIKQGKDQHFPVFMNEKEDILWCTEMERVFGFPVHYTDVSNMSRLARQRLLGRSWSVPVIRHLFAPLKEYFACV
PROPERTY_LABEL: IC50

Notebook: `CC(=O)NCCc1ccc(O)c(-c2c(O)c(O)c3c(c2O)C(=O)c2c(cc(O)c(C(=O)O)c2C(=O)O)C3=O)c1` , IC50 read as 50.5 µM
